The following binders are shown together with reported IC50 values.
- Test System: T1, human GLP-1 receptor (human, UniProt P43220 24-463)
- T1 construct: whole, on cells; Used as purified plasma membranes of the transfected hamster cell line, not as intact cells; also called hGLP-1
- Test Description: SPA, displacement of 125I-GLP-1(7-36)NH2 from hGLP-1R membranes, 0.005% HSA
Numbered stars: 1 amine (or outer) side, 2 acyl side, 3 side chain; on linkers, the order of the positions; unused ones are H or OH. Square brackets hold non-standard residues; d marks the D form. Side chains are listed from the residue outwards. Ends that are not written are not given here. * marks the point of attachment. C18 diacid = O=C(O)CCCCCCCCCCCCCCCCC(=O)*; γGlu = O=C(O)[C@H](CCC(=O)[*:2])N[*:1]; NMeA = CN[C@@H](C)C(=O)O; AEEA = NCCOCCOCC(=O)O; Aib = CC(C)(N)C(=O)O
Readout Type: IC50

> print(dat)
                                     binder  readout.type    result
1  HAEGTK([AEEA-AEEA-C18 diacid])TSDVSSYLEEQAAREFIAHLVQGRG          IC50  < 600 nM
2  H[NMeA]EGTFTSDVSSYLEGQAAK([AEEA-AEEA-γGlu-C18 diacid])EFIAHLVQGRG [N^8-methyl, …]          IC50  < 600 nM
3  H[Aib]EGTFTSDVSSYLEEQK([AEEA-AEEA-γGlu-C18 diacid])AREFIAHLVQGRG          IC50  < 600 nM
4  HXEGTFTSDVSSYLEGQAAKEFIAHLVQGRG (Aib8; Lys26 N-epsilon-acylated (side chain as in name); GLP-1(7-37) numbering)          IC50  < 600 nM
5  HAEGTFTSDVSSYLEK([AEEA-AEEA-γGlu-C18 diacid])QAAREFIAHLVQGRG          IC50  < 600 nM
6  HAEGTK([AEEA-AEEA-γGlu-C18 diacid])TSDVSSYLEEQAAREFIAHLVQGRG          IC50  < 600 nM
7  HAEGTFTSDVSSYLEEQK([AEEA-AEEA-γGlu-C18 diacid])AREFIAHLVQGRG          IC50  < 600 nM
8  H[dA]EGTFTSDVSSYLEGQAAK([AEEA-AEEA-γGlu-C18 diacid])EFIAHLVQGRG          IC50  < 600 nM
